targetOrTestSystem: Glucose transporter (Leishmania mexicana)
testDescription: ST_JUDE_LEISH: Cytotoxicity at 2uM final concentration against transgenic Leishmania Mexicana promastigotes LmGT2 that are glucose transport deficient and complemented with the L. Mexicana glucose transporter 2. Activity is measured by DNA content using SYBR green in vitro
Assay type: functional

>  <compound>
CCN(CCCN1CCCCC1)c1cc(C)nc(Nc2cccc(OC(F)(F)F)c2)n1

>  <inhibition, %>
2.65

$$$$
>  <compound>
N=C(N)NCCN(Cc1ccccc1)c1ccccc1

>  <inhibition, %>
2.3

$$$$
>  <compound>
CN(C)C(CNC(=O)c1cc(-c2ccncc2)c(-c2ccc(NC(=O)Nc3cccc(F)c3)cc2)o1)c1ccccc1 (centres undefined)

>  <inhibition, %>
0.6

$$$$
>  <compound>
COc1cc(C(=O)Nc2cccc(-c3cn4ccc(C)cc4n3)c2)cc(OC)c1OC

>  <inhibition, %>
6.63

$$$$
>  <compound>
COc1cc(NC(=O)C(c2ccc(Cl)cc2)C(C)C)cc(OC)c1 (centres undefined)

>  <inhibition, %>
1.33

$$$$
>  <compound>
CN(C)CCNCc1cccc(-c2ccc3c(Nc4ccc(Oc5ccccn5)cc4)ccnc3c2)c1

>  <inhibition, %>
0.21

$$$$
>  <compound>
FC(F)(F)c1cccc(CCNc2nccc(NCc3ccc(Cl)cc3Cl)n2)c1

>  <inhibition, %>
1.55

$$$$
>  <compound>
CC(C)NCc1cccc(-c2cccc(-c3nc4ccccc4[nH]3)c2)c1

>  <inhibition, %>
-1.69

$$$$
>  <compound>
Cn1c(Nc2cc(C(C)(C)C)on2)nc2cc(Nc3ccnc(Nc4ccc(CS(C)(=O)=O)cc4)n3)ccc21

>  <inhibition, %>
2.34

$$$$
>  <compound>
CN1CCC(C(=O)Nc2ccc(-c3cccc(-c4nc5cc(F)ccc5[nH]4)c3)cc2)CC1

>  <inhibition, %>
8.51

$$$$
>  <compound>
Brc1ccc(C=NNc2nc3ccccc3[nH]2)cc1

>  <inhibition, %>
2.59

$$$$
>  <compound>
Cc1nc(Nc2ccncc2)cc(-c2ccncc2)n1

>  <inhibition, %>
2.92

$$$$
>  <compound>
CCCNC(=O)C1Cc2cc(OC)c(OC)cc2C2(N1)C(=O)N(Cc1cccc(OC)c1)c1ccccc12 (centres undefined)

>  <inhibition, %>
-0.47

$$$$
>  <compound>
N#Cc1cccc(CN2CCCN(c3ccc(NC(=O)c4cccs4)cc3)CC2)c1

>  <inhibition, %>
4.34

$$$$
>  <compound>
O=C(Nc1nc2cc(S(=O)(=O)NCCCN3CCOCC3)ccc2n1CCCn1ccnc1)c1ccc(Cl)cc1

>  <inhibition, %>
4.2

$$$$
>  <compound>
CN(C(=O)NCCc1ccccc1)C1CCN(CCCCCNC(=O)/C=C/c2ccc(Cl)c(Cl)c2)CC1

>  <inhibition, %>
12.4

$$$$
>  <compound>
O=C(Nc1cccc(CN2CCCN(CC3CC3)CC2)c1)c1ccc(Cl)c(Cl)c1

>  <inhibition, %>
12.6

$$$$
>  <compound>
C=CC(=O)Nc1ccc(Cl)cc1C(O)c1ccccc1 (centres undefined)

>  <inhibition, %>
2.36

$$$$
>  <compound>
Nc1ncc(-c2ccc(F)c(Cl)c2)c(N)n1

>  <inhibition, %>
1.32

$$$$
>  <compound>
COc1ccc(OCCCON2C(=N)N=C(N)NC2(C)C)cc1

>  <inhibition, %>
1.17

$$$$
>  <compound>
CN1CCN(CC(=O)Nc2cccc(-c3cccc(-c4nc5cc(F)ccc5[nH]4)c3)c2)CC1

>  <inhibition, %>
3.51

$$$$
>  <compound>
CN1CCCc2ccc(NC(=O)c3cnc(-c4ccccc4)cn3)cc21

>  <inhibition, %>
-0.23

$$$$
>  <compound>
CC1(C)NC(N)=NC(=N)N1OCCCOc1cccc2ccccc12

>  <inhibition, %>
45.4

$$$$
>  <compound>
C#CCCC(=O)Nc1cccc(-c2cccc(-c3nc4cccc(C)c4[nH]3)c2)c1

>  <inhibition, %>
-1.87

$$$$
>  <compound>
N#Cc1ccc(-c2ccc(C(=O)NCCCCN3CCC(n4cnc5ccccc54)CC3)cc2)cc1

>  <inhibition, %>
5.28

$$$$
>  <compound>
CCC(C)OC(=O)C1=C(C)NC2=C(C(=O)CC(c3ccc(OC)c(OC)c3)C2)C1c1ccc(C)o1 (centres undefined)

>  <inhibition, %>
3.8

$$$$
>  <compound>
COc1ccc2nccc([C@@H](O)CN3CCC(NCc4ccc5nnsc5c4)CC3)c2c1

>  <inhibition, %>
-0.67

$$$$
>  <compound>
CC(C)c1ccc(NC(=O)c2ccc(C(=O)NCC3CCN(CC4CCCCC4)CC3)cc2)cc1

>  <inhibition, %>
1.95

$$$$
>  <compound>
CCC[C@@H]([C@@H](CC1CCC(C)CC1)C(=O)N[C@@H](CCCCNC(=O)c1ccccn1)C(=O)Nc1nccs1)N(O)C=O (some centres undefined)

>  <inhibition, %>
1.8

$$$$
>  <compound>
CN(C)C(=O)c1cc(CNCc2ccccc2)ccc1-c1cccc(CNCc2ccc(-c3ccccc3)cc2)c1

>  <inhibition, %>
3.02

$$$$
>  <compound>
COc1ccc(NS(=O)(=O)c2ccc(C(=O)Nc3ccc(OC(F)(F)F)cc3)cc2)cc1N1CCN(CC2CC2)CC1

>  <inhibition, %>
4.14

$$$$
>  <compound>
Clc1ccc(CNc2ccnc(NCc3cccnc3N3CCCC3)n2)c(Cl)c1

>  <inhibition, %>
3.44

$$$$
>  <compound>
CN(C)CCCNc1nccc(N(C)c2ccc(NC(=O)Nc3cc(C(F)(F)F)ccc3F)cc2)n1

>  <inhibition, %>
-0.59

$$$$
>  <compound>
CC(O)C1CCCCN1C(=O)c1ccc(-c2cccc(-c3nc4cc(F)ccc4[nH]3)c2)cc1 (centres undefined)

>  <inhibition, %>
3.89

$$$$
>  <compound>
c1ccc2c(Nc3ccc(OCCOCCOc4ccc(Nc5c6ccccc6nc6ccccc56)cc4)cc3)c3ccccc3nc2c1

>  <inhibition, %>
4.94

$$$$
>  <compound>
O=C(Nc1ccc2c(c1)CCN2C1CCN(Cc2ccc(F)cc2Cl)C1)c1ccco1 (centres undefined)

>  <inhibition, %>
2.25

$$$$
>  <compound>
Cc1ccccc1NC(=S)NC1CCN(CCCCCNC(=O)/C=C/c2ccc(Cl)c(Cl)c2)CC1

>  <inhibition, %>
2.71

$$$$
>  <compound>
CC(C)CNC(=O)c1cncc(-c2cccc(CNC3Cc4ccccc4C3)c2)c1

>  <inhibition, %>
6.4

$$$$
>  <compound>
Cc1[nH]c(C)c(-c2ccc(Oc3ccc(Cl)cc3)cc2)c(=O)c1C

>  <inhibition, %>
1.29

$$$$
